- assay: Pharmacokinetics after oral gavage to male beagle dogs with different pre-treatments (Amgen study 150528)
- Type: in vivo
- details: male, beagle, dog, plasma, po, 3 mg/kg, Phase 3, pentagastrin pre-treatment (stomach pH ~2.0); 3 mg/kg PO, male beagle dogs; read-out: Tmax
assayMetric: Tmax (h)
Give just the numeric value; h need not be written.

# input Data request, read-out Tmax, for CO[C@]1(CN2CCN3CCCC[C@@H]3C2)/C=C/C[C@H](C)[C@@H](C)S(=O)(=O)NC(=O)c2ccc3c(c2)N(C[C@@H]2CC[C@H]21)C[C@@]1(CCCc2cc(Cl)ccc21)CO3 [AMG 397 Crystalline Hydrate]
# output 13.2

* * *

- assay: Pharmacokinetics after oral gavage to male beagle dogs with different pre-treatments (Amgen study 150528)
- Assay type: in vivo
- details: Phase 4, pentagastrin pre-treatment + P-gp inhibitor GF120918; 3 mg/kg PO, male beagle dogs
assayMetric: Cmax (nM)
Give just the numeric value; nM need not be written.

# input Data request, read-out Cmax, for CO[C@]1(CN2CCN3CCCC[C@@H]3C2)/C=C/C[C@H](C)[C@@H](C)S(=O)(=O)NC(=O)c2ccc3c(c2)N(C[C@@H]2CC[C@H]21)C[C@@]1(CCCc2cc(Cl)ccc21)CO3 [AMG 397 Amorphous]
# output 950

* * *

- assay: Pharmacokinetics after oral gavage to male beagle dogs with different pre-treatments (Amgen study 150528)
- Type: in vivo
- details: male, beagle, dog, plasma, po, 3 mg/kg, Phase 4, pentagastrin pre-treatment + P-gp inhibitor GF120918; 3 mg/kg PO, male beagle dogs; read-out: Tmax
assayMetric: Tmax (h)
Give just the numeric value; h need not be written.

# input Data request, read-out Tmax, for CO[C@]1(CN2CCN3CCCC[C@@H]3C2)/C=C/C[C@H](C)[C@@H](C)S(=O)(=O)NC(=O)c2ccc3c(c2)N(C[C@@H]2CC[C@H]21)C[C@@]1(CCCc2cc(Cl)ccc21)CO3 [AMG 397 Crystalline Hydrate]
# output 11.6

* * *

- assay: Solubility of AMG 397 in common spray-drying solvents
- Format: physicochemical
- details: water; read-out: Solubility
assayMetric: solubility (µg/mL)
Give just the numeric value; µg/mL need not be written.

# input Data request, read-out solubility, for CO[C@]1(CN2CCN3CCCC[C@@H]3C2)/C=C/C[C@H](C)[C@@H](C)S(=O)(=O)NC(=O)c2ccc3c(c2)N(C[C@@H]2CC[C@H]21)C[C@@]1(CCCc2cc(Cl)ccc21)CO3 [AMG 397]
# output 7

* * *

- assay: Pharmacokinetics after oral gavage to male beagle dogs with different pre-treatments (Amgen study 150528)
- Assay type: in vivo
- details: male, beagle, dog, plasma, po, 3 mg/kg, Phase 3, pentagastrin pre-treatment (stomach pH ~2.0); 3 mg/kg PO, male beagle dogs
- Procedure: The pharmacokinetics of AMG 397 were assessed following oral administration to male beagle dogs as either a suspension of the crystalline hydrate form of AMG 397 or an amorphous suspension in 2% HPMC, 0.01% Tween 80. The full protocol is described in Amgen study number 150528. The goal of this study was to determine if the amorphous material would lead to increases in bioavailability and if variability in dosing could be reduced. […]
assayMetric: AUC(0-t) (µM·h)
Give just the numeric value; µM·h need not be written.

# input Data request, read-out AUC(0-t), for CO[C@]1(CN2CCN3CCCC[C@@H]3C2)/C=C/C[C@H](C)[C@@H](C)S(=O)(=O)NC(=O)c2ccc3c(c2)N(C[C@@H]2CC[C@H]21)C[C@@]1(CCCc2cc(Cl)ccc21)CO3 [AMG 397 Crystalline Hydrate]
# output 11.3
